- run description: Cytotoxicity against HEK293 cells
- Assay type: cell-based
- experimental context: human
outcome measure: CC50 (µg/mL)

query smiles	outcome measure	measure unit	bound sign	value
O=C(O)c1ccc(-n2cc(CNc3ccc(Cl)c(Cl)c3)c(-c3ccccc3)n2)cc1	CC50	µg/mL	=	18
Cc1cc(NCc2cn(-c3ccc(C(=O)O)cc3)nc2-c2ccccc2)ccc1Br	CC50	µg/mL	=	17.9
O=C(O)c1ccc(-n2cc(/C=N/Nc3ccc(F)cc3)c(-c3ccccc3)n2)cc1	CC50	µg/mL	>	32
O=C(O)c1ccc(-n2cc(/C=N/Nc3ccc(Br)cc3)c(-c3ccccc3)n2)cc1	CC50	µg/mL	>	32

* * *

- Tested on: Acinetobacter baumannii
- run description: Antibacterial activity against Acinetobacter baumannii ATCC 19606 by disk diffusion assay
- Format: functional, ATCC 19606 = CIP 70.34 = JCM 6841
outcome measure: inhibition zone (IZ) (mm)

query smiles	outcome measure	value
O=C(O)c1ccc(-n2cc(/C=N/Nc3ccccc3F)c(-c3ccccc3)n2)cc1	inhibition zone (IZ)	34
O=C(O)c1ccc(-n2cc(/C=N/Nc3ccc(Cl)cc3)c(-c3ccccc3)n2)cc1	inhibition zone (IZ)	54
O=C(O)c1ccc(-n2cc(/C=N/Nc3ccccc3)c(-c3ccccc3)n2)cc1	inhibition zone (IZ)	28
